Each entry below lists one item and its recorded IC50 value.
# tgt: Human TRPC6 (Homo sapiens, UniProt Q9Y210)
# Construct: expressed in transfected cells
# Sequence (Q9Y210 whole entry): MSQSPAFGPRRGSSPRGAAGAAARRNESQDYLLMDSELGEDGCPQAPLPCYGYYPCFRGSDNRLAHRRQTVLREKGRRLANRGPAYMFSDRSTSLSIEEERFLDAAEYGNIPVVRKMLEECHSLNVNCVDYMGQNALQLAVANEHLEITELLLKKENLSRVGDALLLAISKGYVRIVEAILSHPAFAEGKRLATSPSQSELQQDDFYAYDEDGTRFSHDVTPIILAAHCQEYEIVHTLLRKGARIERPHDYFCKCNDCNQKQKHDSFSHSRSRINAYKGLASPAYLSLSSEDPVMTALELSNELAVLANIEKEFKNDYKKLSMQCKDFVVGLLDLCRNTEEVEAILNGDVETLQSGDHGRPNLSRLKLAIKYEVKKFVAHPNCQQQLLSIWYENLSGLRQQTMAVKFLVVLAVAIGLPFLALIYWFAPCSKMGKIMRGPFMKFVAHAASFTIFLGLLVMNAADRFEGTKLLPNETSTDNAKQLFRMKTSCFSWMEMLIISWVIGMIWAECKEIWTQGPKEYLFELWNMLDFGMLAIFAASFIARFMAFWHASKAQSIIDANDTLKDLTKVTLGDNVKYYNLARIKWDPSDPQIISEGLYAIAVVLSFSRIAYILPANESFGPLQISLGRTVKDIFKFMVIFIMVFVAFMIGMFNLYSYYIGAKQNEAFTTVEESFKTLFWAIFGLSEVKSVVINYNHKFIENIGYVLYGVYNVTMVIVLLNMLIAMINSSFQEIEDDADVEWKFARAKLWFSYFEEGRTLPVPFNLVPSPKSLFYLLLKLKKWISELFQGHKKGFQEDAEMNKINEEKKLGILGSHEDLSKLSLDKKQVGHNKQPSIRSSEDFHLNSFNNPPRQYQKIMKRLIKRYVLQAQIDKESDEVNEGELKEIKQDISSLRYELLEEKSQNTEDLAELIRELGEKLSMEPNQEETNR
# assay.comment: Evaluation of TRPC6 channel inhibitory activity (1), FLIPR Calcium 5 Assay Kit, OAG stimulation (Compound Nos. 1-1293)
# Format: cell-based
# measurement.context: Human TRPC6 stably-expressing cells, OAG 30 μM, FLIPR Calcium 5 Assay Kit; read-out: Inhibitory activity (pIC50 class) (converted)
# Description: Evaluation of TRPC6 Channel Inhibitory Activity (1) (Compound Nos. 1-1293) In order to investigate TRPC6 channel inhibitory activity of the compounds, evaluation was conducted using FLIPR® Calcium 5 Assay Kit (Molecular Devices) in accordance with the following procedure. […] A volume of 12.5 μL of a compound solution was added into each well while the fluorescence was measured with FLIPR tetra. […]

# count of solved cases: 3
[
  {
    "compound": "Cn1nc(C(F)(F)F)cc1Oc1cc(C#N)ccc1-c1ncc([C@H](F)CN)cn1",
    "IC50": "< 10 nM"
  },
  {
    "compound": "Cc1ccc(-c2cc(Oc3cc(C#N)ccc3-c3ncc(CCN)cn3)cc(C)n2)nn1",
    "IC50": "> 1000 nM"
  },
  {
    "compound": "Cc1cc(Oc2cc(C#N)ccc2-c2ncc(CN)cn2)cc(N2CCOCC2)n1",
    "IC50": "< 10 nM"
  }
]

The measured IC50 associated with Cn1nc(-c2cscn2)cc1Oc1cc(C#N)ccc1-c1ncc(CCN)cn1 reads < 10 nM

IC50 in this record for COC(C)(C)CN(C)c1cc(Oc2cc(C#N)ccc2-c2ncc(CCN)cn2)n(C)n1 : 10 to 1000 nM

Notebook: CCN(CC(F)F)c1cc(Oc2cc(C#N)ccc2-c2ncc(CCN)cn2)n(C)n1 , IC50 read as < 10 nM

Sample N#Cc1ccc(-c2ccc(CCN)cn2)c(Cn2cnc(-c3ccc(F)cc3)c2)c1 ; IC50 observed: < 10 nM

CC(C)CNC(=O)c1cncn1Cc1cc(C#N)ccc1-c1ccc(CCN)cc1 has a reported IC50 of > 1000 nM

Note to self: IC50 recorded for Cc1cc(Oc2cc(C#N)ccc2-c2ncc(CCN)cn2)cc(N2CCOC[C@H]2C)n1 was < 10 nM

The measured IC50 associated with Cc1cc(Oc2cc(C#N)ccc2-c2ncc(OC3CNC3)cn2)cc(N2CCOCC2)n1 reads > 1000 nM

Noted for Cc1csc(-c2cc(Oc3cc(C#N)ccc3-c3ncc(CN)cn3)n(C)n2)n1 : its IC50 reads 10 to 1000 nM

Notebook: Cc1nc(Oc2cc(C#N)ccc2-n2cc([C@@H](O)CN)cn2)cc(N2CCC(C(C)C)CC2)n1 , IC50 read as > 1000 nM

Lab note: Cn1nc(N2CCCC2)cc1Cc1cc(C#N)ccc1-c1ncc(CCN)cn1 gave IC50 of < 10 nM

Per the record, CC(C)n1cc(C(=O)c2cc(C#N)ccc2-c2ncc(CCN)cn2)cn1 has IC50 of < 10 nM

So, Cn1nc(N2CCCC2)cc1Oc1cc(F)ccc1-c1ncc(CCN)cn1 ? Its IC50 was < 10 nM

Just so you know, measured IC50 for N#Cc1ccc(-c2ccc(CCN)cn2)c(Oc2cnnc(-c3ccccc3)c2)c1 came out at 10 to 1000 nM

IC50 reported for this compound N#Cc1ccc(-c2ccc(C3(CN)CC3)cc2)c(Oc2cnnc(-c3ccccc3)c2)c1 : > 1000 nM

Note to self: IC50 recorded for CCc1cc(Oc2cc(C#N)ccc2-c2ccc(CCN)cn2)n(C)n1 was < 10 nM

Reported IC50 of Cc1nc(Oc2cc(C#N)ccc2-n2cc(C(O)CN(C)C)cn2)cc(N2CCOCC2)n1 (stereo not drawn) : > 1000 nM

Recorded IC50 (compound Cc1nc(Oc2cc(C#N)ccc2-c2ncc(CCN)cn2)cc(-c2nccs2)n1 ): 10 to 1000 nM

response.value for Cn1nc(C2CCOCC2)cc1Oc1cc(C#N)ccc1-c1ccc(CN)cn1 (field: IC50) = < 10 nM

All figures here come from patent US20230167073A1.
